Data provenance is patent US20260242350A1.

- Subject of test: THRβ LBD (His-GST-dLBT-THRβLBD) (Homo sapiens)
- Construct: made in house; host or cells: E. coli BL21 (DE3)
- Sequence (P10828 217-461 limits assumed): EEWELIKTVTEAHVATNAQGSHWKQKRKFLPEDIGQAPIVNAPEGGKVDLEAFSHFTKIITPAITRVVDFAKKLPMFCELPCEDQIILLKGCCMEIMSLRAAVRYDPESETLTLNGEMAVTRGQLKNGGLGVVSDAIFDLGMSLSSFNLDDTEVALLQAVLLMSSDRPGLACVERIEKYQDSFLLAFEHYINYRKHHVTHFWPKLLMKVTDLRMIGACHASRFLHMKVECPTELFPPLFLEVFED
- Assay overview: THR-FRET (time-resolved fluorescence resonance energy transfer) agonist activity assay, THRβ
- Type: biochemical
- Measurement conditions: ratio of EC50 THRα/THRβ
Reported property: Selectivity (THRα/THRβ)

{"Compound": "O=c1cnn(-c2cc(Br)c(Cn3ccc(=O)c4ccccc43)c(Br)c2)c(=O)[nH]1", "Reported": "†† (10 > THRα/β > 1)"}
{"Compound": "Cc1nn(-c2cc(Br)c(Cn3ccc(=O)c4ccccc43)c(Br)c2)c(=O)[nH]c1=O", "Reported": "†† (10 > THRα/β > 1)"}
{"Compound": "Cc1cccc2c1c(=O)ccn2Cc1c(Cl)cc(-n2nc(C(F)F)c(=O)[nH]c2=O)cc1Br", "Reported": "†† (10 > THRα/β > 1)"}

---

Overview of recorded pEC50 for various molecules
- Subject of test: THRα LBD (His-GST-dLBT-THRα LBD) (Homo sapiens, UniProt P10827)
- Sequence (P10827 163-407 isoform P10827-2): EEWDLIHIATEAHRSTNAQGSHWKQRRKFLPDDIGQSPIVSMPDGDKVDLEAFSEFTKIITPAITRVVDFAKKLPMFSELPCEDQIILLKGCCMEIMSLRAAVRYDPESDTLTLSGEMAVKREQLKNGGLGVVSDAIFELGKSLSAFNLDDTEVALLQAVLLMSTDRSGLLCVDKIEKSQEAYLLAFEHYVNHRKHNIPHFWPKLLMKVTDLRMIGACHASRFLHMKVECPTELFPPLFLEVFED
- Assay overview: THR-FRET (time-resolved fluorescence resonance energy transfer) agonist activity assay, THRα
- Measurement conditions: 24 h at room temperature
pEC50: −log10 of the molar value.

Worked examples, 6 molecules total:
{"Compound": "Cc1cccc2c1c(=O)ccn2Cc1c(Br)cc(-n2nc(C(F)F)c(=O)[nH]c2=O)cc1Br", "pEC50": "7.00 to 7.30"}
{"Compound": "[2H]C(F)(F)c1nn(-c2cc(Br)c(Cn3ccc(=O)c4ccccc43)c(Br)c2)c(=O)[nH]c1=O", "pEC50": "7.00 to 7.30"}
{"Compound": "O=c1[nH]c(=O)n(-c2cc(Br)c(Cn3ccc(=O)c4ccccc43)c(Br)c2)nc1C(F)F", "pEC50": "7.00 to 7.30"}
{"Compound": "O=c1ccn(Cc2c(Cl)cc(NCc3nnn[nH]3)cc2Cl)c2ccccc12", "pEC50": "6.00 to 7.00"}
{"Compound": "O=C(O)C(=O)Nc1cc(Cl)c(Cn2ccc(=O)c3ccccc32)c(Cl)c1", "pEC50": "6.00 to 7.00"}
{"Compound": "O=C(O)CC(=O)Nc1cc(Cl)c(Cn2ccc(=O)c3ccccc32)c(Cl)c1", "pEC50": "5.00 to 6.00"}

Could you now consider this next molecule?
Could you tell me which pEC50 is on file for Cc1nn(-c2cc(Cl)c(Cn3ccc(=O)c4ccccc43)c(Cl)c2)c(=O)[nH]c1=O ?
5.00 to 6.00

---

- Subject of test: THRα LBD (His-GST-dLBT-THRα LBD) (Homo sapiens, UniProt P10827)
- Sequence (P10827 163-407 isoform P10827-2): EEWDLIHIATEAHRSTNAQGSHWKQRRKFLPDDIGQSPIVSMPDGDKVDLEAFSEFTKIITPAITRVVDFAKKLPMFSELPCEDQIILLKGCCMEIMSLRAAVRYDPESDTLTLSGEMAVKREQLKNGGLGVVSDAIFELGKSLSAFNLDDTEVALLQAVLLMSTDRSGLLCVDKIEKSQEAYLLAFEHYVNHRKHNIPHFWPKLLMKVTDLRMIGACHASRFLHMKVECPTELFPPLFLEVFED
- Assay overview: THR-FRET (time-resolved fluorescence resonance energy transfer) agonist activity assay, THRα
- Measurement conditions: 24 h at room temperature
pEC50: −log10 of the molar value.
Reported property: pEC50

{"Molecule": "O=C(Nc1cc(Cl)c(Cn2ccc(=O)c3ccccc32)c(Cl)c1)c1noc(=O)[nH]1", "pEC50": "5.00 to 6.00"}
{"Molecule": "O=c1[nH]c(COc2cc(Cl)c(Cn3ccc(=O)c4ccccc43)c(Cl)c2)no1", "pEC50": "6.00 to 7.00"}

Enter reported pEC50 observed with THRα LBD (His-GST-dLBT-THRα LBD) (Homo sapiens, UniProt P10827) for Cc1nn(-c2cc(Br)c(Cn3ccc(=O)c4c(C)cccc43)c(Br)c2)c(=O)[nH]c1=O
6.00 to 7.00

So what pEC50 did Cc1cccc2c1c(=O)ccn2Cc1c(Br)cc(-n2ncc(=O)[nH]c2=O)cc1Br get with THRα LBD (His-GST-dLBT-THRα LBD) (Homo sapiens, UniProt P10827)?
7.00 to 7.30
